Measured zone of inhibition at 10000 µg/mL values are reported for all entries that follow.
Tested on: Geotrichum candidum
Experiment: Antifungal activity against Geotrichum candidum RCMB 052006 at 10 mg/ml after 3 to 4 days by agar well diffusion method
Format: functional
Settings: read-out: DIZ
# output: bare number, implied unit mm

Example cases with answers are listed next.
1) Cc1c(Nc2csc3ncnc(N)c23)c(=O)n(-c2ccccc2)n1C; 12.8
2) Cc1c(NC(=O)CC(=O)C(=O)NN)c(=O)n(-c2ccccc2)n1C; 13.4
3) Cc1c(Nc2csc(N)c2C#N)c(=O)n(-c2ccccc2)n1C; 22.4
4) Cc1c(Nc2csc3c2C(=O)N[S+]([O-])N3)c(=O)n(-c2ccccc2)n1C (centres undefined); 14.4

Look up zone of inhibition at 10000 µg/mL: Cc1c(Nc2csc(NC(=O)CCl)c2C#N)c(=O)n(-c2ccccc2)n1C
18.3

Consider the molecule CCOC(=O)C(=O)CC(=O)Nc1c(C)n(C)n(-c2ccccc2)c1=O and give its measured zone of inhibition at 10000 µg/mL.
13.4

Value lookup for zone of inhibition at 10000 µg/mL; key = CCOC(=O)c1c(Nc2c(C)n(C)n(-c3ccccc3)c2=O)csc1N
22

Please give the measured zone of inhibition at 10000 µg/mL for this molecule: CC(=O)Nc1c(C)n(C)n(-c2ccccc2)c1=O
13.4

Any idea what zone of inhibition at 10000 µg/mL was measured for CCO/C=N\c1scc(Nc2c(C)n(C)n(-c3ccccc3)c2=O)c1C#N ?
17.4
